- ASSAY_PROTOCOL: Human HepG2 cell viability assay in 384 well format
- Type: toxicity, cell-based
- Set-up: dose 125 nL, time 70.5 hour; concentration not given beside the values
- SETUP_CONDITIONS: HepG2 cells, read-out: Inhibition
EXPERIMENTAL_ENDPOINT: cytotoxicity at 70.5 h

Examples from the recorded data:
* CCC(CC)C(=O)N1CCOC2(CNC2)C1 | 6.77%
* CC(C)N(C)CC(=O)N1CCCC(n2ccnc2)C1 (configuration not stated) | 1.97%
* COc1ccc(NC(=O)Cn2nc(C)c(C(C)=O)c2C)cc1 | 2.67%
* CC(C)c1noc(C2CCCN2C(=O)Cc2cn3ccsc3n2)n1 (configuration not stated) | -9.25%
* Cc1cccc(OCCC(=O)N(C)CCC#N)c1C | -8.74%
* CC(C)(O)c1cn(C2CCN(C(=O)CCC3CCCC3)CC2)nn1 | 27%
* Oc1nc(-c2cnccn2)nc2c1CCN(Cc1ccccn1)C2 | -5.26%
* CCc1nc(C)c(C(=O)N(C)Cc2cnn(-c3cccc(OC)c3)c2)s1 | -3.66%

Looking up CCN(C(=O)CN1CCCN(c2nc(C)ns2)CC1)C1CC1 , I see its cytotoxicity at 70.5 h listed as -3.69%

Just so you know, measured cytotoxicity at 70.5 h for O=S(=O)(c1ccc2c(c1)CCC2)N1CCCC(Cn2cncn2)C1 (configuration not stated) came out at 0.224%

Item: CCN(CC)CCNc1c(-c2ccccc2)c(=O)c1=O | cytotoxicity at 70.5 h: -0.107%

Given item CN(CC(O)C(F)(F)F)C(=O)Nc1cccc(N2CCCC2)c1 (configuration not stated) , the value recorded as its cytotoxicity at 70.5 h is -3.73%

---

- ASSAY_PROTOCOL: Human HepG2 cell viability assay in 384 well format
- Format: toxicity, cell-based
- Set-up: dose 125 nL, time 70.5 hour; concentration not given beside the values
- SETUP_CONDITIONS: HepG2 cells, read-out: Inhibition
Threshold rule: cytotoxicity at 70.5 h greater than or equal to 20% is T; below that, F.

• COCc1cnc2n1CCN(C1CCC1)C2C (stereo unspecified) = F
• COc1cc(OC)cc(C(=O)N2CCOCC2c2[nH]ncc2C)c1 (stereo unspecified) = F
• CNC(=O)[C@H]1C[C@@H]2CCN(c3nnc(C)s3)C[C@@H]2O1 = F

Query: Given c1ccc(NCc2cnc3n2CCN(C2CCOC2)CC3)nc1 (stereo unspecified) , state whether its cytotoxicity at 70.5 h is at least 20%.
Response: F

Query: Dear colleague, could you confirm whether CN(C)CCOCC1CN(Cc2ccoc2)Cc2nnn(C)c21 (stereo unspecified) has cytotoxicity at 70.5 h at or above 20%?
Response: F

Query: Say whether CC(C)OC(=O)N1CCC(Cc2ccc(C(=O)O)cc2)C1 (stereo unspecified) shows cytotoxicity at 70.5 h of 20% or more.
Response: T

---

- ASSAY_PROTOCOL: Human HepG2 cell viability assay in 384 well format
- Format: toxicity, cell-based
- Design: dose 125 nL, time 70.5 hour; concentration not given beside the values
- SETUP_CONDITIONS: HepG2 cells, read-out: Inhibition
EXPERIMENTAL_ENDPOINT: cytotoxicity at 70.5 h (%)
Please reply with the bare figure in % and do not write the unit itself.

• Cc1ccc(C)c(OCCNC(=O)C2CCOC2)c1 (stereo unspecified) = -1.02
• NS(=O)(=O)c1cc(C(=O)N2CCCC(n3ccnc3)C2)cs1 (stereo unspecified) = -3.09
• O=C1CCCN1CCCC(=O)N1CCCC(c2ccn[nH]2)C1 (stereo unspecified) = -12
• COc1ccc(CN2C[C@@H]3CC[C@H](C2)N(Cc2snnc2C)C3)cc1 = 49
• CCS(=O)(=O)N1CCC2(CC1)CCn1c(-c3cnn(C)c3)cnc12 = -13
• Cc1nc(C)n(CC2CCCCN2CCCS(N)(=O)=O)n1 (stereo unspecified) = -5.16
• COc1ccc2[nH]c(=O)c(CN(C)CCN3CCCC3)cc2c1 = 57.1
• Cc1nn(C)c(Cl)c1C1CCCN1C(=O)c1ccc2nncn2c1 (stereo unspecified) = 5.97

Reported cytotoxicity at 70.5 h for Cn1ccc(C(=O)N2CCOC(c3ccc(C(N)=O)cn3)C2)n1 (stereo unspecified) was 0.762

Per the record, CCN(CC)Cc1nc(Cc2cccc(C(F)(F)F)c2)no1 has cytotoxicity at 70.5 h of -7.89

So for Cc1cc(C)n(CC2CCCN2CCC(=O)Nc2cc(C)on2)n1 (stereo unspecified) , the logged cytotoxicity at 70.5 h turned out to be -7.1

---

- ASSAY_PROTOCOL: Human HepG2 cell viability assay in 384 well format
- Format: toxicity, cell-based
- Set-up: dose 125 nL, time 70.5 hour; concentration not given beside the values
- SETUP_CONDITIONS: HepG2 cells, read-out: Inhibition
EXPERIMENTAL_ENDPOINT: cytotoxicity at 70.5 h (%)
Please give a number only; it is taken to be in %.

• CCN(CC1CCCO1)C(=O)Nc1cc(OC)c(OC)cc1C (stereo not drawn) = -14.3
• COc1ccc(C(=O)N2CCOCC2c2ccc(C)o2)cc1 (stereo not drawn) = -9.97
• O=C1CC[C@H]2[C@H](CCN2c2ncc(F)cn2)N1c1ccccc1 = -5.86
• CCOCC1CN(C(=O)c2ccncc2)Cc2nn(C)cc21 (stereo not drawn) = -18
• NCCC(=O)N1CCC2(CC1)CN(C(=O)Cc1cccc(Cl)c1)CCO2 = -15.5
• CCC(=O)NCC(c1ccc(SC)cc1)N1CCc2sccc2C1 (stereo not drawn) = -8.32
• Cc1cc(N2CCC(n3cc(CN4CCSCC4)nn3)CC2)ccn1 = 1.06
• Cc1nn(C)c(C)c1NC(=O)CCn1ncc2ccccc21 = 9.95

// sample CC(C)(O)CN1CCN(C(=O)c2cccc(CC#N)c2)CC1 , its cytotoxicity at 70.5 h was 1.57

cytotoxicity at 70.5 h in this record for c1cc2n(n1)CC(CNCc1ccc(OCC3CC3)nc1)CN2 (stereo not drawn) : 1.11

---

Here, each record is paired with measured cytotoxicity at 70.5 h data.
- ASSAY_PROTOCOL: Human HepG2 cell viability assay in 384 well format
- Type: toxicity, cell-based
- Design: dose 125 nL, time 70.5 hour; concentration not given beside the values
- SETUP_CONDITIONS: HepG2 cells, read-out: Inhibition
Numbers only; they are read as %.

• Cc1nnc(CN(Cc2cccc(Cl)c2)C(C)C)o1 = -16.1

Entry O=C(C1CC1)N1CCN(Cc2ccncc2)c2ncccc2C1 ; cytotoxicity at 70.5 h = -10.1

Entry Fc1ccc(-c2cnc(C3CCNCC3)cn2)cc1 ; cytotoxicity at 70.5 h = -2.13

Recorded result, Cc1nnc(N2CCCC2)c(C(N)=O)c1C , cytotoxicity at 70.5 h: -6.33

Record CNc1nc(CNC(=O)Nc2cccc(F)c2)cs1 , field cytotoxicity at 70.5 h: -6.65

// CN(CCN1CCN(c2ccccc2)CC1)C(=O)Nc1ccccn1 : cytotoxicity at 70.5 h value = 17.7

Please fill in: cytotoxicity at 70.5 h reported for Cc1cc(CN(C)C(=O)NCc2ccccn2)no1 = -1.24

---

- ASSAY_PROTOCOL: Human HepG2 cell viability assay in 384 well format
- Format: toxicity, cell-based
- Design: dose 125 nL, time 70.5 hour; concentration not given beside the values
- SETUP_CONDITIONS: HepG2 cells, read-out: Inhibition
The entries below are paired with their reported cytotoxicity at 70.5 h.
Returns: string containing the number followed by the unit.

Use these answered entries as a reference point.
- O=c1n(CCn2cccc2)nc(C2CCNCC2)n1Cc1ccccc1: -3.92%
- Cc1ccc(-c2nc(CN3CCOCC3)no2)cc1N1CCNC1=O: -6.32%
- CCO[C@H]1CN(C)C[C@@H]1NC(=O)c1cc(C)nc2c(C)c(C)ccc12: -6.51%
- O=C(c1ccco1)N1CCN2C[C@H](Oc3cncnc3)C[C@H]2C1: 12.4%

Data point: CCc1nc(CC(=O)N2CCOCC2c2ncon2)cs1 (stereo unspecified) ; cytotoxicity at 70.5 h = -3.4%

Briefly, cytotoxicity at 70.5 h measured for CCn1cnnc1CNC(=O)c1ccc(Cl)cc1F : -4.7%

Noted for CN(C)C(=O)CO[C@@H]1CC[C@H]2[C@H]1OCCN2c1ncccn1 : its cytotoxicity at 70.5 h reads 4.77%

# compound O=S(=O)(NCCCn1cncn1)c1ccc2c(c1)OCCCO2 ; its cytotoxicity at 70.5 h = -6.28%

Measured cytotoxicity at 70.5 h, Cc1ccc(CNC(=O)CN2CCN(CC(O)c3ccco3)CC2)cc1 (stereo unspecified) : 29.2%

The value of cytotoxicity at 70.5 h measured for the compound Cc1ncsc1C(=O)NC1CCN(Cc2ccc(C(N)=O)cc2)CC1 turned out to be 1.08%

So for Cc1nc(CCNC(=O)N2CCC(Cc3cnn(C)c3)C2)cs1 (stereo unspecified) , the logged cytotoxicity at 70.5 h turned out to be -29.6%

Value of cytotoxicity at 70.5 h reported for the compound COCCC(=O)N[C@H]1CN(c2nc(C)c3c(n2)CCCC3)C[C@@H]1C1CC1 is -9.64%

// O=C(NCCc1c[nH]c2ccc(F)cc12)C1(n2cnnn2)CCCCC1 : cytotoxicity at 70.5 h value = -22.2%

The reported value for CC(C#N)CSc1ccccc1NCC(=O)NC(=O)NC(C)(C)C (stereo unspecified) in terms of cytotoxicity at 70.5 h is -2.56%

The compound listed as CCS(=O)(=O)Nc1ccc(C(=O)NCCCN2CCCC2)cc1 has a reported cytotoxicity at 70.5 h of -4.61%

In plain terms, Cc1cc(C)n(CCC2CC(=O)Nc3cc4[nH]ncc4cc32)n1 (stereo unspecified) has a documented cytotoxicity at 70.5 h of -6.11%

Per the record, COc1ncccc1C(=O)N1CCC(c2nnc(C3CC3)o2)CC1 has cytotoxicity at 70.5 h of 4.57%

According to the records, this compound CC(c1cccc(-c2ncc(C#N)c(N)n2)c1)N(C)C (stereo unspecified) displays cytotoxicity at 70.5 h of -12.5%

// field: cytotoxicity at 70.5 h; key: Cn1cc(-c2ncc3c(c2C(=O)O)CCN(Cc2ccccn2)C3)cn1 ; value = -1.31%

Value of measured cytotoxicity at 70.5 h for the entry CCN1CCc2cc(-c3cncn3CCNC3CCS(=O)(=O)C3)ccc21 (stereo unspecified) : -5.23%

In plain terms, COC(=O)[C@H](CSC)Nc1nc(C2CCCC2)nc2c1cnn2C has a documented cytotoxicity at 70.5 h of -8.48%

Field cytotoxicity at 70.5 h (entry Cc1csc(C2CCCN(C(=O)c3cc(Cl)c[nH]3)C2)n1 (stereo unspecified) ) reads -0.903%

Lookup result for COc1ccc(C(C)Nc2ncc(C(N)=O)cc2Cl)c(OC)c1 (stereo unspecified) ; measured cytotoxicity at 70.5 h: -4.47%

What the record says about Cc1cc2nc(-c3cn(C4CCNCC4)nn3)[nH]c2cc1C : cytotoxicity at 70.5 h is -2.26%

Note to self: cytotoxicity at 70.5 h recorded for CCN(C(=O)CN1CCN(CC(C)O)CC1)C1=CCCCC1 (stereo unspecified) was -3.37%

The recorded cytotoxicity at 70.5 h for entry CC(C(=O)N(C)C1CCCCC1)S(=O)(=O)Cc1csc(-c2cccs2)n1 (stereo unspecified) equals -7.18%
